// provenance: patent US6756359B2

system: E. faecalis Enfa_29212; experiment: Antibacterial activity in vitro, MIC by broth microdilution; assay type: cell-based; details: Table 3, Strain ID C: E. faecalis Enfa_29212; unit assumed

>  <molecule>
CC[C@H]1OC(=O)[C@H](C)C(=O)[C@H](C)[C@@H](O[C@@H]2O[C@H](C)C[C@H](N(C)C)[C@H]2O)[C@@](C)(OC)C[C@@H](C)C(=O)[C@H](C)[C@H]2N(CCCCn3cnc(-c4cccnc4)c3)C(=O)O[C@]12CC [Compound 7280]

>  <MIC / mg/L>
0.1

$$$$
>  <molecule>
CC[C@H]1OC(=O)[C@H](C)C(=O)[C@H](C)[C@@H](O[C@@H]2O[C@H](C)C[C@H](N(C)C)[C@H]2O)[C@@](C)(OC)C[C@@H](C)C(=O)[C@H](C)[C@@H]2[C@@H]1OC(=O)N2CCCn1cnc(-c2ccccc2)c1 [Compound 4714]

>  <MIC / mg/L>
0.4

$$$$
>  <molecule>
CC[C@H]1OC(=O)[C@H](C)C(=O)[C@H](C)[C@@H](O[C@@H]2O[C@H](C)C[C@H](N(C)C)[C@H]2O)[C@@](C)(OC)C[C@@H](C)C(=O)[C@H](C)[C@H]2N(CCCCn3cnc4ccccc43)C(=O)O[C@]12CC [Compound 7282]

>  <MIC / mg/L>
0.1

$$$$
>  <molecule>
CC[C@H]1OC(=O)[C@H](C)C(=O)[C@H](C)[C@@H](O[C@@H]2O[C@H](C)C[C@H](N(C)C)[C@H]2O)[C@@](C)(OC)C[C@@H](C)C(=O)[C@H](C)[C@H]2NC(=O)O[C@@H]21 [Compound 4266]

>  <MIC / mg/L>
1.56

$$$$
>  <molecule>
CC[C@H]1OC(=O)[C@H](C)C(=O)[C@H](C)[C@@H](O[C@@H]2O[C@H](C)C[C@H](N(C)C)[C@H]2O)[C@@](C)(OC)C[C@@H](C)C(=O)[C@H](C)[C@@H]2[C@@H]1OC(=O)N2CCCCn1ccc2ccccc21 [Compound 4717]

>  <MIC / mg/L>
0.1

$$$$
>  <molecule>
CC[C@H]1OC(=O)[C@H](C)C(=O)[C@H](C)[C@@H](O[C@@H]2O[C@H](C)C[C@H](N(C)C)[C@H]2O)[C@@](C)(OC)C[C@@H](C)C(=O)[C@H](C)[C@H]2N(CCCCc3ccnc4ccccc34)C(=O)O[C@]12CC [Compound 7283]

>  <MIC / mg/L>
0.1

$$$$
>  <molecule>
CC[C@H]1OC(=O)[C@H](C)C(=O)[C@H](C)[C@@H](O[C@@H]2O[C@H](C)C[C@H](N(C)C)[C@H]2O)[C@@](C)(OC)C[C@@H](C)C(=O)[C@H](C)[C@H]2N(CCCCn3cnc(-c4ccccc4)c3)C(=O)O[C@]12CC [Compound 7281]

>  <MIC / mg/L>
0.1

$$$$
>  <molecule>
CC[C@H]1OC(=O)[C@H](C)C(=O)[C@H](C)[C@@H](O[C@@H]2O[C@H](C)C[C@H](N(C)C)[C@H]2O)[C@@](C)(OC)C[C@@H](C)C(=O)[C@H](C)[C@@H]2[C@@H]1OC(=O)N2CCCCn1cnc2ncccc21 [Compound 4713]

>  <MIC / mg/L>
0.1

$$$$

* * *

test system: E. faecalis Enfa_29212; assay: Antibacterial activity in vitro, MIC by broth microdilution; type: cell-based; conditions: Table 3, Strain ID C: E. faecalis Enfa_29212; unit assumed

>  <compound>
CC[C@H]1OC(=O)[C@H](C)C(=O)[C@H](C)[C@@H](O[C@@H]2O[C@H](C)C[C@H](N(C)C)[C@H]2O)[C@@](C)(OC)C[C@@H](C)C(=O)[C@H](C)[C@@H]2[C@@H]1OC(=O)N2CCCn1cnc2cccnc21

>  <MIC [µg/mL]>
0.78

$$$$
>  <compound>
CC[C@H]1OC(=O)[C@H](C)C(=O)[C@H](C)[C@@H](O[C@@H]2O[C@H](C)C[C@H](N(C)C)[C@H]2O)[C@@](C)(OC)C[C@@H](C)C2=NCCN3C(=O)O[C@H]1[C@H]3[C@H]2C

>  <MIC [µg/mL]>
0.4

$$$$
>  <compound>
CC[C@H]1OC(=O)[C@H](C)C(=O)[C@H](C)[C@@H](O[C@@H]2O[C@H](C)C[C@H](N(C)C)[C@H]2O)[C@@](C)(OC)C[C@@H](C)C2=N[C@@H](C)CN3C(=O)O[C@H]1[C@H]3[C@H]2C

>  <MIC [µg/mL]>
0.78

$$$$
>  <compound>
CC[C@H]1OC(=O)[C@H](C)[C@@H](O[C@H]2C[C@@](C)(OC)[C@@H](O)[C@H](C)O2)[C@H](C)[C@@H](O[C@@H]2O[C@H](C)C[C@H](N(C)C)[C@H]2O)[C@](C)(OC)C[C@@H](C)C(=O)[C@H](C)[C@@H](O)[C@]1(C)O [Clar., clarithromycin, reference compound]

>  <MIC [µg/mL]>
0.78

$$$$

* * *

tested on: S. pneumoniae Stpn_297-749 Pen R; assay: Antibacterial activity in vitro, MIC by broth microdilution; format: cell-based, Streptococcus pneumoniae; conditions: Table 3, Strain ID F: S. pneumoniae Stpn_297-749 Pen R

>  <molecularString>
CC[C@H]1OC(=O)[C@H](C)C(=O)[C@H](C)[C@@H](O[C@@H]2O[C@H](C)C[C@H](N(C)C)[C@H]2O)[C@@](C)(OC)C[C@@H](C)C(=O)[C@H](C)[C@H]2N(CCCCc3ccnc4ccccc34)C(=O)O[C@]12CC

>  <MIC>
≦0.05

$$$$
>  <molecularString>
CC[C@H]1OC(=O)[C@H](C)C(=O)[C@H](C)[C@@H](O[C@@H]2O[C@H](C)C[C@H](N(C)C)[C@H]2O)[C@@](C)(OC)C[C@@H](C)C(=O)[C@H](C)[C@H]2NC(=O)O[C@@H]21

>  <MIC>
≦0.05

$$$$

* * *

tested on: S. pyogenes Stpy_8668; experiment: Antibacterial activity in vitro, MIC by broth microdilution; assay type: cell-based; settings: Table 5, Strain ID E: S. pyogenes Stpy_8668; unit assumed
Overview of reported MIC across a group of molecules:
quantityKind: MIC (µg/mL)

>  <molecule>
CC[C@H]1OC(=O)[C@H](C)C(=O)[C@H](C)[C@@H](OC2O[C@H](C)C[C@H](N(C)C)[C@H]2O)[C@@](C)(OC)C[C@@H](C)C(=O)[C@H](C)[C@H]2N(CCCOc3cccc(-c4cccnc4)c3)C(=O)O[C@]12CC (stereo partly drawn)

>  <unitSpec>
µg/mL

>  <valueReported>
0.2

$$$$
>  <molecule>
CC[C@H]1OC(=O)[C@@](C)(F)C(=O)[C@H](C)[C@@H](OC2O[C@H](C)C[C@H](N(C)C)[C@H]2O)[C@@](C)(OC)C[C@@H](C)C(=O)[C@H](C)[C@H]2N(CCCCc3ccc4ccccc4n3)C(=O)O[C@]12CC (stereo partly drawn)

>  <unitSpec>
µg/mL

>  <valueReported>
0.1

$$$$
>  <molecule>
CC[C@H]1OC(=O)[C@H](C)C(=O)[C@H](C)[C@@H](OC2O[C@H](C)C[C@H](N(C)C)[C@H]2O)[C@@](C)(OC)C[C@@H](C)C(=O)[C@H](C)[C@H]2N(CCCOc3ccc(-c4cccnc4)cc3)C(=O)O[C@]12CC (stereo partly drawn)

>  <unitSpec>
µg/mL

>  <valueReported>
0.4

$$$$
>  <molecule>
CC[C@H]1OC(=O)[C@@](C)(F)C(=O)[C@H](C)[C@@H](OC2O[C@H](C)C[C@H](N(C)C)[C@H]2O)[C@@](C)(OC)C[C@@H](C)C(=O)[C@H](C)[C@H]2N(CCCCc3ccnc4ccccc34)C(=O)O[C@]12CC (stereo partly drawn)

>  <unitSpec>
µg/mL

>  <valueReported>
0.1

$$$$
>  <molecule>
CC[C@H]1OC(=O)[C@H](C)C(=O)[C@H](C)[C@@H](OC2O[C@H](C)C[C@H](N(C)C)[C@H]2O)[C@@](C)(OC)C[C@@H](C)C(=O)[C@H](C)[C@H]2N(CCCCc3ccc4ccccc4n3)C(=O)O[C@]12CC (stereo partly drawn)

>  <unitSpec>
µg/mL

>  <valueReported>
0.1

$$$$
>  <molecule>
C/C=C/[C@]12OC(=O)N(CCCCn3cnc(-c4cccnc4)c3)[C@@H]1[C@@H](C)C(=O)[C@H](C)C[C@](C)(OC)[C@H](O[C@@H]1O[C@H](C)C[C@H](N(C)C)[C@H]1O)[C@@H](C)C(=O)[C@@H](C)C(=O)O[C@@H]2CC

>  <unitSpec>
µg/mL

>  <valueReported>
0.2

$$$$

* * *

tested on: S. pneumoniae Stpn_Erm 6849; test: Antibacterial activity in vitro, MIC by broth microdilution; assay type: cell-based, Streptococcus pneumoniae; settings: Table 5, Strain ID I: S. pneumoniae Stpn_Erm 6849; unit assumed

>  <compound>
CC[C@H]1OC(=O)[C@H](C)C(=O)[C@H](C)[C@@H](OC2O[C@H](C)C[C@H](N(C)C)[C@H]2O)[C@@](C)(OC)C[C@@H](C)C(=O)[C@H](C)[C@H]2N(CCCCc3ccnc4ccccc34)C(=O)O[C@]12CC (some centres unmarked)

>  <MIC [µg/mL]>
1.56

$$$$
>  <compound>
C=C[C@]12OC(=O)N(CCCC(C)(C)n3cnc(-c4cccnc4)c3)[C@@H]1[C@@H](C)C(=O)[C@H](C)C[C@](C)(OC)[C@H](OC1O[C@H](C)C[C@H](N(C)C)[C@H]1O)[C@@H](C)C(=O)[C@@H](C)C(=O)O[C@@H]2CC (some centres unmarked)

>  <MIC [µg/mL]>
0.1

$$$$
